Origin of measurements: ChEMBL document CHEMBL4765234

Parameter: EC50. Scope: all listed entries.
biological target: Free fatty acid receptor 1 (Homo sapiens, UniProt O14842); test: Agonist activity at human recombinant full length GPR40 overexpressed in human HEK293 cells assessed as increase in inositol phosphate accumulation in presence of terbium cryptate-labeled anti IP1/d2-labelled IP1 measured after 120 mins by HTRF assay; assay type: functional, cell-based
Sequence (O14842 whole entry): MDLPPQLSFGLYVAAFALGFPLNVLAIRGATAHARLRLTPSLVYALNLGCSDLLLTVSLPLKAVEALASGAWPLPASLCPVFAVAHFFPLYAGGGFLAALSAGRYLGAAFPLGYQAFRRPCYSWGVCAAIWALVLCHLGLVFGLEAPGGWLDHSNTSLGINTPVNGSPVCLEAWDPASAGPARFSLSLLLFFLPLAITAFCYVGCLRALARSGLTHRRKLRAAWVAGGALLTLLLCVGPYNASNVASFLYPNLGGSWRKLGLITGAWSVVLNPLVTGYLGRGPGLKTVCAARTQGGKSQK

ITEM_SMILES | EC50 / nM
CC#C[C@@H](CC(=O)O)c1ccc(OCc2ccc(CN3CCC4(C=Cc5ccccc54)CC3)c(OC)c2)cc1 | 7.4
CC#C[C@@H](CC(=O)O)c1ccc(OCc2ccc(CN3CCC4(C=Cc5ccccc54)CC3)c(F)c2)cc1 | 2.3
CC#C[C@@H](CC(=O)O)c1ccc(OCc2ccc(CN3CCC4(C=Cc5ccccc54)CC3)c(C(F)(F)F)c2)cc1 | 1.9
CC#C[C@@H](CC(=O)O)c1ccc(OCc2cc(C)c(CN3CCC4(C=Cc5ccccc54)CC3)s2)cc1 | 0.98
CC#C[C@@H](CC(=O)O)c1ccc(OCc2ccc(CN3CCC4(C=Cc5ccccc54)CC3)s2)cc1 | 0.6
CC#C[C@H](CC(=O)O)c1ccc(OCc2ccc(CN3CCC4(C=Cc5ccccc54)CC3)cc2)cc1F | 190

###

target: Free fatty acid receptor 1 (Homo sapiens); test: Agonist activity at human recombinant full length GPR40 overexpressed in human HEK293 cells assessed as increase in inositol phosphate accumulation in presence of terbium cryptate-labeled anti IP1/d2-labelled IP1 measured after 120 mins by HTRF assay relative to AMG837; type: functional, cell-based; details: filed as agonist
REPORTED_METRIC: Emax

ITEM_SMILES | REPORTED_METRIC | RESULT
CC#C[C@@H](CC(=O)O)c1ccc(OCc2ccc(CN3CCC4(C=Cc5ccccc54)CC3)c(Cl)c2)cc1 | Emax | 193%
CC#C[C@@H](CC(=O)O)c1ccc(OCc2ccc(CN3CCC4(C=Cc5ccccc54)CC3)c(OC)c2)cc1 | Emax | 345%
O=C(O)CCc1ccc(OCc2ccc(CN3CCC4(C=Cc5ccccc54)CC3)cc2)cc1F | Emax | 282%
CC#C[C@@H](CC(=O)O)c1ccc(OCc2ccc(CN3CCC4(CC3)CN(C)c3ccc(C)cc34)cc2)cc1 | Emax | 231%
CC#C[C@H](CC(=O)O)c1ccc(OCc2ccc(CN3CCC4(C=Cc5ccccc54)CC3)cc2)cc1 | Emax | 166%

###

target: Free fatty acid receptor 1 (Homo sapiens, UniProt O14842); experiment: Displacement of [3H]-TAK-875 from human recombinant full-length GPR40 expressed in human HEK293 cell membrane incubated for 2 hrs by solid scintillation counting method
pKi: −log10 of the molar value.
Parameter: pKi. Scope: all listed entries.

ITEM_SMILES | pKi
CC#C[C@@H](CC(=O)O)c1ccc(OCc2ccc(CN3CCC4(CC3)CN(C)c3ccccc34)cc2)cc1 | 7.96
CC#C[C@@H](CC(=O)O)c1ccc(OCc2ccc(CN3CCC4(CC3)CC(=O)c3ccccc3O4)cc2)cc1 | 7.80
CC#C[C@@H](CC(=O)O)c1ccc(OCc2ccc(CN3CCC4(CCc5ccccc54)CC3)s2)cc1 | 8.09

###

molecular target: Free fatty acid receptor 1 (Homo sapiens); experiment: Agonist activity at human recombinant full length GPR40 overexpressed in human HEK293 cells assessed as increase in inositol phosphate accumulation in presence of terbium cryptate-labeled anti IP1/d2-labelled IP1 measured after 120 mins by HTRF assay; assay type: functional, cell-based
Parameter: EC50. Scope: all listed entries.
REPORTED_METRIC: EC50 (nM)

ITEM_SMILES | SYSTEM | UNIT_ANNOTATION | RESULT
CC#C[C@@H](CC(=O)O)c1ccc(OCc2ccc(CN3CCC4(CC3)CN(C(C)C)c3ccccc34)cc2)cc1 | Free fatty acid receptor 1 (Homo sapiens) | nM | 11
CC#C[C@@H](CC(=O)O)c1ccc(OCc2ccc(CN3CCC4(CCc5ccccc54)CC3)s2)cc1 | Free fatty acid receptor 1 (Homo sapiens) | nM | 6.1
CC#C[C@@H](CC(=O)O)c1ccc(OCc2nc(C)c(CN3CCC4(C=Cc5ccccc54)CC3)s2)cc1 | Free fatty acid receptor 1 (Homo sapiens) | nM | 10
CC#C[C@@H](CC(=O)O)c1ccc(OCc2ccc(CN3CCC4(CC3)CN(C)c3c(Cl)cccc34)cc2)cc1 | Free fatty acid receptor 1 (Homo sapiens) | nM | 11
